Test system: 349418-098-R-PDC complex spheroid viability;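 further: spheroids exposed to compound for seven days before viability readout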
Test: Anticancer human tumor 349418-098-R-PDC patient-derived lung adenocarcinoma cell line growth inhibition [RAS]
Details: second compound 0.1 µM; first compound 0.0316 µM; active compounds read low
Reported Metric: viability, T/C (%)
Give just the numeric value; % need not be written.

The following compounds have reported results that may help.
{"Compound": "Cc1nc(N2CCC3(CC2)COC(C)C3N)c(CO)nc1Sc1ccnc(N)c1Cl (centres undefined) + C#Cc1c(F)ccc2cc(O)cc(-c3ncc4c(N5CC6CCC(C5)N6)nc(OCC56CCCN5CC(F)C6)nc4c3F)c12", "Assay System": "349418-098-R-PDC complex spheroid viability", "viability, T/C, %": 112}
{"Compound": "Nc1ccn(C2OC(CO)C(O)C2(F)F)c(=O)n1 (centres undefined) + C=CC(=O)N1CCN(c2nc(OCC3CCCN3C)nc3c(F)c(-c4nc(N)cc(C)c4C(F)(F)F)c(Cl)cc23)C(C)C1", "Assay System": "349418-098-R-PDC complex spheroid viability", "viability, T/C, %": 4.56}
{"Compound": "CCN1CCN(Cc2ccc(Nc3ncc(F)c(-c4cc(F)c5nc(C)n(C(C)C)c5c4)n3)nc2)CC1 + C=CC(=O)N1CCN(c2nc(OCC3CCCN3C)nc3c(F)c(-c4nc(N)cc(C)c4C(F)(F)F)c(Cl)cc23)C(C)C1", "Assay System": "349418-098-R-PDC complex spheroid viability", "viability, T/C, %": 35.6}

INPUT: Please give the measured viability, T/C for this compound: NC1c2ccccc2OC12CCN(c1cnc3c(N4CCCc5ncccc54)n[nH]c3n1)CC2 (centres undefined) + C#Cc1c(F)ccc2cc(O)cc(-c3ncc4c(N5CC6CCC(C5)N6)nc(OCC56CCCN5CC(F)C6)nc4c3F)c12
OUTPUT: 86.7

INPUT: Please give the measured viability, T/C for this compound: CC(=O)OC12COC1CC(O)C1(C)C(=O)C(O)C3=C(C)C(OC(=O)C(O)C(NC(=O)OC(C)(C)C)c4ccccc4)CC(O)(C(OC(=O)c4ccccc4)C21)C3(C)C (centres undefined) + C#Cc1c(F)ccc2cc(O)cc(-c3ncc4c(N5CC6CCC(C5)N6)nc(OCC56CCCN5CC(F)C6)nc4c3F)c12
OUTPUT: 16.3

INPUT: Please give the measured viability, T/C for this compound: CCC(CC)c1cc(NC2CCC(N)C2)n2nccc2n1 (centres undefined) + C#Cc1c(F)ccc2cc(O)cc(-c3ncc4c(N5CC6CCC(C5)N6)nc(OCC56CCCN5CC(F)C6)nc4c3F)c12
OUTPUT: 84.2

INPUT: Please give the measured viability, T/C for this compound: CC1(O)CCCC1n1c(=O)c(C(F)F)cc2cnc(NC3CCN(S(C)(=O)=O)CC3)nc21 (centres undefined) + C=CC(=O)N1CCN(c2nc(OCC3CCCN3C)nc3c(F)c(-c4nc(N)cc(C)c4C(F)(F)F)c(Cl)cc23)C(C)C1
OUTPUT: 64.8

INPUT: Please give the measured viability, T/C for this compound: CC(=O)OC12COC1CC(O)C1(C)C(=O)C(O)C3=C(C)C(OC(=O)C(O)C(NC(=O)OC(C)(C)C)c4ccccc4)CC(O)(C(OC(=O)c4ccccc4)C21)C3(C)C (centres undefined) + C=CC(=O)N1CCN(c2nc(OCC3CCCN3C)nc3c(F)c(-c4nc(N)cc(C)c4C(F)(F)F)c(Cl)cc23)C(C)C1
OUTPUT: 13

INPUT: Please give the measured viability, T/C for this compound: CC(C)n1nc(-c2ccc3oc(N)nc3c2)c2c(N)ncnc21 + C=CC(=O)N1CCN(c2nc(OCC3CCCN3C)nc3c(F)c(-c4nc(N)cc(C)c4C(F)(F)F)c(Cl)cc23)C(C)C1
OUTPUT: 8.94

Ref: PubChem BioAssay AID2060904
